- Test system: CP335
- run-description: qHTS profiling for inhibitors of Plasmodium falciparum proliferation (AID 504749); further: nearly all actives have a fitted effect of over 60% in size
- test-conditions: P. falciparum in erythrocytes, SYBR Green DNA, 72 h; series mostly up to 28.7 µM
- Description: NIH National Institute of Allergy and Infectious Diseases [NIAID] NIH Chemical Genomics Center [NCGC] […] Because mature erythrocytes lack DNA, only Plasmodium-derived DNA is detected. NCGC Assay Protocol Summary: The SYBR Green viability assay was adapted from a method described previously (Plouffe et al., 2008). […] The following morning, fluorescence intensity at 485(14) nm excitation and 535(25) nm emission wavelengths was measured on an EnVision (Perkin Elmer) plate reader. […]
Inconclusive results are not listed. Calls of active or inactive are those of the source. The call rests on the fitted dose curve; in most records, active means well fitted inhibition curve with a large enough effect; inconclusive means small, poorly fitted or top-dose-only effect; inactive means flat fitted curve, though single readings scatter.
Outcomes: active, inactive

>  <compound>
CC(/C=C1\SC(=S)N(CC(=O)O)C1=O)=C\c1ccccc1

>  <class>
inactive

$$$$
>  <compound>
CC(C)(C)[C@]1(O)CCN2CC3c4ccccc4CCc4cccc(c43)[C@@H]2C1 (some centres undefined)

>  <class>
active

$$$$
>  <compound>
C=C1/C(=C\C=C2/CCC[C@]3(C)[C@@H]([C@H](C)CCCC(C)(C)O)CC[C@@H]23)C[C@@H](O)C[C@@H]1O

>  <class>
inactive

$$$$
>  <compound>
CN=C(N)NCCCC(N)C(=O)O (centres undefined)

>  <class>
inactive

$$$$
>  <compound>
C[C@@]12C(=O)OC(=O)[C@]1(C)[C@H]1CC[C@@H]2O1

>  <class>
active

$$$$
>  <compound>
C=C1CCC2[C@](C)(CO)C(O)CC[C@]2(C)C1C/C=C1/C(=O)OCC1O (some centres undefined)

>  <class>
inactive

$$$$
>  <compound>
CN1C(=O)CCC1c1cccnc1 (centres undefined)

>  <class>
inactive

$$$$
>  <compound>
CO[C@H]1/C=C/O[C@@]2(C)Oc3c(C)c(O)c4c(O)c(c(/C=N\N5CCN(C6CCCC6)CC5)c(O)c4c3C2=O)NC(=O)/C(C)=C\C=C\[C@H](C)[C@H](O)[C@@H](C)[C@@H](O)[C@@H](C)[C@H](OC(C)=O)[C@@H]1C

>  <class>
active

$$$$
>  <compound>
CC(C)C[C@H]1C(=O)N2CCCC2[C@]2(O)O[C@](NC(=O)[C@@H]3C=C4c5cccc6[nH]c(Br)c(c56)C[C@H]4N(C)C3)(C(C)C)C(=O)N12 (some centres undefined)

>  <class>
active

$$$$
